assay: LAP4-GFP expression modulators in yeast, confirmation, cell-based, cherry picks, flow cytometry, mother/daughter gates (AID 2271);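 also: ratio of sample to DMSO plate mean so 100% equals DMSO level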; conditions: S. cerevisiae LAP4-GFP strain, 3 h, measured here: mother cell gate response, at 10 µM, stronger effect = higher value, 100 means same as DMSO control
value kind: GFP response relative to DMSO (%)
Numbers only, in %.

COc1ccc(-c2csc(Nc3ncccc3C)n2)cc1; 109
CCCCn1c(=O)c(C(=O)OCC)c(O)c2ccccc21; 108
O=C(OCn1ncc(Br)c(Br)c1=O)c1c(F)cccc1F; 175
C=CCn1c(=O)c(C(=O)Nc2ccccc2C(=O)OCC)c(O)c2ccccc21; 89.7
Cc1nn(Cc2ccccc2Cl)c(C)c1C(=O)NCc1ccco1; 98.4
CCCCCCc1cc2cc(-c3nnc(-c4ccccc4OC)o3)c(=O)oc2cc1O; 111

Value sought for every listed compound: GFP response relative to DMSO.
1. CN1CCN(CC(=O)N2CCn3c4c(c5cc(C6CCCCC6)ccc53)CCCC42)CC1 (stereo unspecified)
2. CCc1ccc(CNC(=O)CCC(=O)N2Cc3cccc(OC)c3Oc3ncccc32)cc1
3. CCCN(c1ccccc1F)S(=O)(=O)c1cc(-c2cc(C)no2)ccc1OC
4. O=[N+]([O-])c1cc(Cl)c2cccnc2c1O
5. COc1cc(NC(=O)c2ccc(C)cc2C)ccc1NC(=O)c1cc2ccccc2o1

Found:
[119, 95.2, 98.3, 181, 95.4]
